Recorded values, source ChEMBL document CHEMBL1961873.

- Target Of Assay: Ribosomal protein S6 kinase alpha-5 (Homo sapiens) (UniProt O75582);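 note: mean inhibition of MSK1, from screening of the GSK PKIS inhibitor set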
- Sequence (O75582 whole entry, looked up): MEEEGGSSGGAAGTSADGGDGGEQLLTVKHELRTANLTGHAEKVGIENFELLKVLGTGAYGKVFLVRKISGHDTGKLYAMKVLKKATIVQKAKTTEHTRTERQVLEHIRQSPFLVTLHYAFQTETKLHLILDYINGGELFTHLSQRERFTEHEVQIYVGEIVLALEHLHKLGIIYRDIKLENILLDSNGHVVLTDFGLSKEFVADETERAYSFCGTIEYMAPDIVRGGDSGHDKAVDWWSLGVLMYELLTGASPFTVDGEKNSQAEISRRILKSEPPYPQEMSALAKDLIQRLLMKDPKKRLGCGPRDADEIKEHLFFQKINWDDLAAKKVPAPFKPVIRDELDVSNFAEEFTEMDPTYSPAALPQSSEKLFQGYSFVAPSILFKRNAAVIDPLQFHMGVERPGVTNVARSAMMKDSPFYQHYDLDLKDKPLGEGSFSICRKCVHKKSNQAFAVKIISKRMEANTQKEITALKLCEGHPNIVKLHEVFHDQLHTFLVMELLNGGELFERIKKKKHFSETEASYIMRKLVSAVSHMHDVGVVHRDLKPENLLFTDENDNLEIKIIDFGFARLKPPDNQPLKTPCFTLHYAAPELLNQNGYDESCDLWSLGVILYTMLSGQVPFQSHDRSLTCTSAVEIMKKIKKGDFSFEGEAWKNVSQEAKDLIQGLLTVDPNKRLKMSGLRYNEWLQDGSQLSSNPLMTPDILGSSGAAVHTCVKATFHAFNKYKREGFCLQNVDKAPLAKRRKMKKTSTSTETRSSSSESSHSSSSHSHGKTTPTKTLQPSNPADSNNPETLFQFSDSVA
- Condition Parameters: at 1 µM
Recorded inhibition for the following molecules
Respond with the bare value in %.

Below are worked cases with known answers.
COc1cc2c(cc1Nc1nc(Nc3ccsc3C(N)=O)c3cc[nH]c3n1)N(C(=O)CN(C)C)CCC2(C)C = 8.3
CCn1c(-c2nonc2N)nc2ccccc21 = 62.5

Task: Which inhibition is listed for `CCn1c(-c2nonc2N)nc2c(C#CC(C)(C)O)ncc(OC3CCNCC3)c21` ?
Result: 11.8

Task: Which inhibition is listed for `N#Cc1c(NC(=O)c2ccc(F)cc2)sc2c1CCCC2` ?
Result: 2.08

====

- Target Of Assay: Serine/threonine-protein kinase MRCK alpha (Homo sapiens) (UniProt Q5VT25);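 note: each inhibition figure is a mean value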
- Sequence (Q5VT25 whole entry): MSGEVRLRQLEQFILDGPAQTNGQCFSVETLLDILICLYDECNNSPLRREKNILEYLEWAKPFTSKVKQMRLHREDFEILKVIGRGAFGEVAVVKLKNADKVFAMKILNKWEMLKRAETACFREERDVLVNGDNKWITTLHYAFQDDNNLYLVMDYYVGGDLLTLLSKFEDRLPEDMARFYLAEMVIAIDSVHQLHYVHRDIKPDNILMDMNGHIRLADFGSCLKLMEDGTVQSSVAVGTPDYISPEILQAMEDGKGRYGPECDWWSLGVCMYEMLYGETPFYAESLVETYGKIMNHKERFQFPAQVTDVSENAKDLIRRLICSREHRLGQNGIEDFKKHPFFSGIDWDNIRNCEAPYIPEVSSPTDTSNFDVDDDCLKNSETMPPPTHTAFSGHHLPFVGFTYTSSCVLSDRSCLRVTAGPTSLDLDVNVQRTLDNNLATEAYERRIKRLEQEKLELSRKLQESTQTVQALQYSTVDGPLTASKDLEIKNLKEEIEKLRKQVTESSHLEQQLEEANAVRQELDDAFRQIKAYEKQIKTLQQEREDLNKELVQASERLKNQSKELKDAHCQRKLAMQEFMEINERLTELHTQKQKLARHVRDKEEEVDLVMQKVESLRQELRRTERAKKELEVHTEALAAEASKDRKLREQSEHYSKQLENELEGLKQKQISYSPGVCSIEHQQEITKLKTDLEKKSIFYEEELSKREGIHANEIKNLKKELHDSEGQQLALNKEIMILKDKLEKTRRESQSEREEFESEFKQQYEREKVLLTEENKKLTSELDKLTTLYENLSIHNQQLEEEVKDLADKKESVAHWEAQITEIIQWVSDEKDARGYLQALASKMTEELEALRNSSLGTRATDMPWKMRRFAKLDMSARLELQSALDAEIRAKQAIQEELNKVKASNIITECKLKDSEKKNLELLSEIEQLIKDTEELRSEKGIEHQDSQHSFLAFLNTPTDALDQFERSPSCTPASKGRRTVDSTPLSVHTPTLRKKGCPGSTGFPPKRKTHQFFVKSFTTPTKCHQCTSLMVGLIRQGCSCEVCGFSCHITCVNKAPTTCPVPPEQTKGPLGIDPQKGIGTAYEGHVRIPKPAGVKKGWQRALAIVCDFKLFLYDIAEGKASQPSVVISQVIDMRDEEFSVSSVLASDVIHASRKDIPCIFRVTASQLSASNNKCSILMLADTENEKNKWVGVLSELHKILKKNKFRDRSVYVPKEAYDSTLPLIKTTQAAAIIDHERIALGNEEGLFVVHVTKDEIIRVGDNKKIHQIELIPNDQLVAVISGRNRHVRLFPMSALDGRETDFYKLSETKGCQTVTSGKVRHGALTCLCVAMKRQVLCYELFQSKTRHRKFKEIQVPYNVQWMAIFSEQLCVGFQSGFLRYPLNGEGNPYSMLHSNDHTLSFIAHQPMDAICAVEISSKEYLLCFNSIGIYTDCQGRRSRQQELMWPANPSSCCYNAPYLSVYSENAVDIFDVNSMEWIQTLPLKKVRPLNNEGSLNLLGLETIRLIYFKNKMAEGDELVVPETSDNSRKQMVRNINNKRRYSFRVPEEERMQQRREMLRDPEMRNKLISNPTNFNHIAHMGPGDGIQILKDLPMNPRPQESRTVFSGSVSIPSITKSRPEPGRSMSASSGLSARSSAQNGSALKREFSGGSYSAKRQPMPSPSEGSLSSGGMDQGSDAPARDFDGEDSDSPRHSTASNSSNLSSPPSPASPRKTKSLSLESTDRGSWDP
- Condition Parameters: at 0.1 µM
Recorded inhibition for the following compounds
Respond with the bare value in %.

CC(=O)NCc1cccc(C#Cc2cncnc2Nc2ccc(OCc3cccc(F)c3)c(Cl)c2)c1 = 0.23
Nc1nc(-c2ccc(F)cc2)c(-c2ccc3ncccc3n2)s1 = -0.11
COc1ccc(-c2oc3ncnc(N)c3c2-c2ccc(NC(=O)Nc3cc(C(F)(F)F)ccc3F)cc2)cc1 = 0.52
c1ccc(-c2nc3n(c2-c2ccc4c(c2)OCO4)CCC3)nc1 = 1.51
COc1cc(Nc2nccc(Nc3ccc4c(C)n[nH]c4c3)n2)cc(OC)c1OC = 1.61

Task: Which inhibition is listed for `CC(C)(CO)CNC(=O)c1ccc2c(c1)/C(=N/Nc1ccc(S(N)(=O)=O)cc1)C(=O)N2` ?
Result: -0.66

====

Recorded inhibition for the following compounds
- Target Of Assay: Protein kinase C beta type (Homo sapiens) (UniProt P05771);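 note: measured against the PKC-beta2 splice variant, with values reported as mean percent inhibition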
- Sequence (P05771 2-671 limits assumed): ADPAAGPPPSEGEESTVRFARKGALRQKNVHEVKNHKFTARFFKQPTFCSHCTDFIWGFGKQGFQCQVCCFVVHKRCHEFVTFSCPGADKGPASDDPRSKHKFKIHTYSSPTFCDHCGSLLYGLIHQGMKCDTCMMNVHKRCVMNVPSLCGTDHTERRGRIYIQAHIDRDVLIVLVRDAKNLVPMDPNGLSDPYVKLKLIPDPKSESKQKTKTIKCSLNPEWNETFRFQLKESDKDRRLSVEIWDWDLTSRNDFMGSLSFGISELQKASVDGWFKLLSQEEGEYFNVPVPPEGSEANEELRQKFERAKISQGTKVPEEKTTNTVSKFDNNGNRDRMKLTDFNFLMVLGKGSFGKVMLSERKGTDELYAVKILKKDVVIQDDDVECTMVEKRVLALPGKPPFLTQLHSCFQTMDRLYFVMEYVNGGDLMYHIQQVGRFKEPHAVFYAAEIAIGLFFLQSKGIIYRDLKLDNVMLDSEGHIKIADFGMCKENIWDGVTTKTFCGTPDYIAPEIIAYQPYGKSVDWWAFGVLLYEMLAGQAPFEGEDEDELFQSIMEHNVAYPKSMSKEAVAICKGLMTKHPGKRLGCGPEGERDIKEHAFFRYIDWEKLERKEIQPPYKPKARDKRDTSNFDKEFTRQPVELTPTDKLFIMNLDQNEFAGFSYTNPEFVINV
- Condition Parameters: at 0.1 µM
- Description: GSK_PKIS: PKC-beta2 (splice variant) mean inhibition at 0.1 uM [Nanosyn]
Respond with the bare value in %.

Task: Which inhibition is listed for `CN1CCC(n2cnc(-c3ccc(F)cc3)c2-c2ccnc(N)n2)CC1` ?
Result: 2.83

Task: Which inhibition is listed for `[O-][S+]1CCN(Cc2ccc(-c3ccc4ncnc(Nc5ccc(OCc6cccc(F)c6)c(Cl)c5)c4c3)o2)CC1` ?
Result: 2.05

Task: Which inhibition is listed for `Fc1cccc(COc2ccc(Nc3ncnc4sc(-c5ccco5)cc34)cc2Cl)c1` ?
Result: 1

Task: Which inhibition is listed for `Nc1nc(-c2ccc(F)cc2)c(-c2ccc3ncccc3n2)s1` ?
Result: 1.11

Task: Which inhibition is listed for `CCN1CCC(CC(=O)Nc2n[nH]c3nnc(-c4cccc(F)c4F)cc23)CC1` ?
Result: 0.16

Task: Which inhibition is listed for `COc1cc2c(cc1Nc1nc(Nc3ccsc3C(N)=O)c3cc[nH]c3n1)N(C(=O)CN(C)C)CCC2(C)C` ?
Result: 3.45

Task: Which inhibition is listed for `CCn1c(-c2nonc2N)nc2ccccc21` ?
Result: 0.96

Task: Which inhibition is listed for `Fc1ccc(-c2nn3ccccc3c2-c2ccncc2)cc1` ?
Result: 1.95

Task: Which inhibition is listed for `CCN(CC)S(=O)(=O)c1ccc(OC)c(Nc2ncc(-c3ccccc3)o2)c1` ?
Result: 0.23

Task: Which inhibition is listed for `CCOc1ccc2c(-c3ccnc(Nc4cccc(C(F)(F)F)c4)n3)cnn2n1` ?
Result: 0.45

Task: Which inhibition is listed for `N#Cc1c(NC(=O)c2ccc(F)cc2)sc2c1CCCC2` ?
Result: 1.04

Task: Which inhibition is listed for `Nc1nc(-c2cccc(Cl)c2)c(-c2ccc3ncccc3n2)s1` ?
Result: 2.82

Task: Which inhibition is listed for `COc1ccc(-c2oc3ncnc(N)c3c2-c2ccc(NC(=O)Nc3cc(C(F)(F)F)ccc3F)cc2)cc1` ?
Result: 1.71

Task: Which inhibition is listed for `Fc1ccc(-c2nn3ncccc3c2-c2ccnc(Nc3ccc4c(c3)OCCO4)n2)cc1` ?
Result: 3.86
